In this section, each of the variants is paired with its reported self-cleavage.
B1: OR4K15 (parent)
chain: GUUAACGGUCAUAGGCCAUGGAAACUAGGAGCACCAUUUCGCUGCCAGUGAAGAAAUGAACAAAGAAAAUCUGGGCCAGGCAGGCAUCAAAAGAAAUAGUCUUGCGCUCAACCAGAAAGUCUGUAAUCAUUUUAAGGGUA

Variants of: B1
test: self-cleavage, relative activity (ratio to wild type); higher = more cleavage; in vitro, sequencing; the parent is a self-cleaving ribozyme
assay_endpoint: self-cleavage

1) A66G G138A | 1.26
2) A52G G104A | 0.04
3) A30G U100A | 0.49
4) A78U A126G | 0.17
5) U70A A95G | 1.98
6) A52G U127A | 1.73
7) A5U U132C | 1.4
8) A62G A111G | 0.02
9) C25U U127C | 0.57
10) A90G A91G | 0.55
11) U39C A86G | 1.19
12) A47G G58C | 0.97
13) U2C A63G | 1.12
14) U108C U139A | 0.04
15) A23G A111G | 0.05
16) G58A A111G | 0
17) U72C C107U | 0.01
18) G41C U43C | 2.19
19) G106A A140U | 0.05
20) A90G A96U | 1.79
21) U124G A125U | 1.25
22) A47G U131A | 0.62
23) A13U U72C | 0.49
24) U49A A114G | 0.25
25) A94G A140G | 1.53
26) C35U U87C | 1
27) A59U A82U | 0.15
28) G73A A94G | 0.19
29) U2C A91U | 0.81
30) A92G C105U | 0.08
31) A22G U100A | 0.54
32) U72C U108A | 0.07
33) A5G G80A | 0.43
34) U43G A125G | 1.11
35) A33G A117G | 0.7
36) U39A U131C | 1.59
37) A33G C112G | 0.02
38) A24G C109U | 0.46
39) A22U A30G | 1.13
40) A92G U132C | 1.35
41) A13G A82G | 0.47
